- Test system: Escherichia coli
- assay remarks: Antibacterial activity against Escherichia coli by twofold serial dilution method
- Type: functional
property label: MIC

Known MIC results, listed for orientation:
compound | target or test system | MIC
Cc1ccc(C2NC(c3ccc(C)cc3)C3CCCC2C3=NOCc2ccccc2)cc1 (stereo unspecified) | Escherichia coli | 100 µg/mL
O=C(O)c1cn(C2CC2)c2cc(N3CCNCC3)c(F)cc2c1=O | Escherichia coli | 25 µg/mL
Cc1ccc(C2NC(c3ccc(C)cc3)C3C(=NOCc4ccccc4)C2C(c2ccc(C)cc2)NC3c2ccc(C)cc2)cc1 (stereo unspecified) | Escherichia coli | 25 µg/mL
c1ccc(CON=C2C3C(c4ccccc4)NC(c4ccccc4)C2C(c2ccccc2)NC3c2ccccc2)cc1 (stereo unspecified) | Escherichia coli | 100 µg/mL
CN1C(c2ccc(Cl)cc2)C2CCCC(C2=NOCc2ccccc2)C1c1ccc(Cl)cc1 (stereo unspecified) | Escherichia coli | 50 µg/mL

Here's the next entry for you.
Param request: MIC | system Escherichia coli | item COc1ccc(C2C3CCCC(C3=NOCc3ccccc3)C(c3ccc(OC)cc3)N2C)cc1 (stereo unspecified) 25 µg/mL

* * *

- Tested on: Escherichia coli
- assay remarks: Antibacterial activity against Escherichia coli by twofold serial dilution method
- Type: functional
Could you please report measured MIC for the items listed next?
One number for each entry, in µg/mL.

molecule | target or test system | observed measurement
Clc1ccccc1C1NC(c2ccccc2Cl)C2CCCC1C2=NOCc1ccccc1 (stereo not given) | Escherichia coli | 12.5
COc1ccc(C2NC(c3ccc(OC)cc3)C3CCCC2C3=NOCc2ccccc2)cc1 (stereo not given) | Escherichia coli | 50
Fc1ccc(C2NC(c3ccc(F)cc3)C3CCCC2C3=NOCc2ccccc2)cc1 (stereo not given) | Escherichia coli | 25
Fc1cccc(C2NC(c3cccc(F)c3)C3CCCC2C3=NOCc2ccccc2)c1 (stereo not given) | Escherichia coli | 25

// fetch MIC given entry c1ccc(CON=C2C3CCCC2C(c2ccccc2)NC3c2ccccc2)cc1 (stereo not given) 100

* * *

- Tested on: Candida albicans
- assay remarks: Antifungal activity against Candida albicans by twofold serial dilution method
- Format: functional
Please provide measured MIC for the entries that follow.
Give bare numbers, in µg/mL.

molecule | measurement units | MIC
Cc1ccc(C2C3CCCC(C3=NOCc3ccccc3)C(c3ccc(C)cc3)N2C)cc1 (centres undefined) | µg/mL | 50

For each listed entry, give its MIC.
1. Fc1cccc(C2NC(c3cccc(F)c3)C3CCCC2C3=NOCc2ccccc2)c1 (centres undefined)
2. COc1ccc(C2NC(c3ccc(OC)cc3)C3C(=NOCc4ccccc4)C2C(c2ccc(OC)cc2)NC3c2ccc(OC)cc2)cc1 (centres undefined)

[50, 50]

* * *

- System: Salmonella enterica
- assay remarks: Antibacterial activity against Salmonella typhi by twofold serial dilution method
- Type: functional, Salmonella enterica subsp. enterica serovar Typhi
Would you kindly list MIC for each of these compounds?
Write the numeric value and append its unit.

Examples with their reported MIC follow.
compound | MIC
Fc1ccc(C2NC(c3ccc(F)cc3)C3CCCC2C3=NOCc2ccccc2)cc1 (stereo not drawn) | 50 µg/mL
COc1ccc(C2NC(c3ccc(OC)cc3)C3CCCC2C3=NOCc2ccccc2)cc1 (stereo not drawn) | 50 µg/mL
Clc1ccc(C2NC(c3ccc(Cl)cc3)C3CCCC2C3=NOCc2ccccc2)cc1 (stereo not drawn) | 25 µg/mL
CN1C(c2ccc(Cl)cc2)C2CCCC(C2=NOCc2ccccc2)C1c1ccc(Cl)cc1 (stereo not drawn) | 25 µg/mL
Cc1ccc(C2C3CCCC(C3=NOCc3ccccc3)C(c3ccc(C)cc3)N2C)cc1 (stereo not drawn) | 50 µg/mL

Batch lookup, MIC per entry.
1. Fc1cccc(C2NC(c3cccc(F)c3)C3CCCC2C3=NOCc2ccccc2)c1 (stereo not drawn)
2. c1ccc(CON=C2C3CCCC2C(c2ccccc2)NC3c2ccccc2)cc1 (stereo not drawn)
3. CN1C(c2ccccc2)C2CCCC(C2=NOCc2ccccc2)C1c1ccccc1 (stereo not drawn)
4. COc1ccc(C2C3CCCC(C3=NOCc3ccccc3)C(c3ccc(OC)cc3)N2C)cc1 (stereo not drawn)
5. Clc1ccccc1C1NC(c2ccccc2Cl)C2CCCC1C2=NOCc1ccccc1 (stereo not drawn)
6. Cc1ccc(C2NC(c3ccc(C)cc3)C3CCCC2C3=NOCc2ccccc2)cc1 (stereo not drawn)

1. 100 µg/mL
2. 200 µg/mL
3. 100 µg/mL
4. 50 µg/mL
5. 50 µg/mL
6. 100 µg/mL

Please go through the list and note MIC for each compound.
1. O=C(O)c1cn(C2CC2)c2cc(N3CCNCC3)c(F)cc2c1=O
2. CN1C(c2ccc(F)cc2)C2CCCC(C2=NOCc2ccccc2)C1c1ccc(F)cc1 (stereo not drawn)

1: 50 µg/mL; 2: 25 µg/mL
